Data credit: patent US9266870B2

Exercise: state measured pIC50 for each of the compounds provided.
tgt: human orexin-2 receptor (hOX2R) (Homo sapiens (Human))
Sequence (O43614 whole entry): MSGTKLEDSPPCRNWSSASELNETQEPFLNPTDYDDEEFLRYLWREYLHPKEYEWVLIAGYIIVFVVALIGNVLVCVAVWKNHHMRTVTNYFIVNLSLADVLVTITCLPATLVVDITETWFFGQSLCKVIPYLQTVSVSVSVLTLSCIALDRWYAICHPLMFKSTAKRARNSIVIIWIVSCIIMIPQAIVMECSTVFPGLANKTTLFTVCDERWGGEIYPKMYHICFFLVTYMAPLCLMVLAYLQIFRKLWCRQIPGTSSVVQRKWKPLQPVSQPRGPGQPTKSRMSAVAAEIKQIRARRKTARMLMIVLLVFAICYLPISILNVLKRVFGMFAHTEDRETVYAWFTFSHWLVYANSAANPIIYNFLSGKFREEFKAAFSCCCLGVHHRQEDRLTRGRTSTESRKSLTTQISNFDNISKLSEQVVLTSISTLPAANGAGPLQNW
assay: Measurement of orexin antagonistic activity (intracellular Ca2+ fluorescence, FDSS), hOX2R
Type: cell-based
condition-parameters: CHO cells forcibly expressing hOX2R; ligand peptide (modified human orexin-A) 3 nM; maximum fluorescence intensity; read-out: IC50 Value OX2
Expect pIC50 as a plain number equal to -log10 of the molar concentration.

So the reported pIC50 for O=C(c1cc(F)ccc1-c1ncccn1)N1CCCOC1Cn1ccc(-c2ccc(F)cn2)n1 (single isomer, unassigned; (-)) [Example 34] , on human orexin-2 receptor (hOX2R) (Homo sapiens (Human)), turned out to be 8.21

So the reported pIC50 for Cc1ccc(-c2ncccn2)c(C(=O)N2CCOC2Cn2ccc(-c3ccc(F)cc3)n2)c1 (racemic) [Example 20] , on human orexin-2 receptor (hOX2R) (Homo sapiens (Human)), turned out to be 7.00

So the reported pIC50 for Cc1ccc(-n2nccn2)c(C(=O)N2CCOC2Cn2ccc(-c3ccc(F)cn3)n2)n1 (racemic) [Example 13] , on human orexin-2 receptor (hOX2R) (Homo sapiens (Human)), turned out to be 6.60

So the reported pIC50 for O=C(c1cc(F)ccc1-c1ncccn1)N1CCOC1Cn1ccc(-c2ccc(F)cn2)n1 (racemic) [Example 16] , on human orexin-2 receptor (hOX2R) (Homo sapiens (Human)), turned out to be 7.14

###

Exercise: state measured IC50 for each of the compounds provided.
tgt: UniProt:O43613
Sequence (O43613 whole entry): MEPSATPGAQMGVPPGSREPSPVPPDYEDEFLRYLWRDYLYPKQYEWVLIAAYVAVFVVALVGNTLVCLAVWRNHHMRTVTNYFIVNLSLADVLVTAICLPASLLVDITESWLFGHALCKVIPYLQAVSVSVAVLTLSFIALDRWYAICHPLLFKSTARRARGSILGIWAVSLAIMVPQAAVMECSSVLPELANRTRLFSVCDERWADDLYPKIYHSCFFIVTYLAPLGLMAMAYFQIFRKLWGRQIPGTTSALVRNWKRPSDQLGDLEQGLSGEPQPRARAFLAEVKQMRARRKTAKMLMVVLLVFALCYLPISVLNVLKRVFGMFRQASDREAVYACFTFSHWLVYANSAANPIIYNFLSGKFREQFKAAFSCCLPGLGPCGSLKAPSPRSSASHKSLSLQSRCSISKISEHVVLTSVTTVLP
assay: Measurement of orexin antagonistic activity (intracellular Ca2+ fluorescence, FDSS), hOX1R
Format: cell-based
condition-parameters: CHO cells forcibly expressing hOX1R; ligand peptide (modified human orexin-A) 300 pM; maximum fluorescence intensity; read-out: IC50 Value OX1

Cc1ccc(-n2nccn2)c(C(=O)N2CCCOC2Cn2cc(-c3ccc(F)cc3)cn2)n1 (single isomer, unassigned; (-)) yielded IC50 of 10.9 nM

Cc1ccc(-n2nccn2)c(C(=O)N2CCOC2Cn2ccc(-c3ccc(F)cc3)n2)n1 (single isomer, unassigned; (-)) yielded IC50 of 21.7 nM

O=C(c1cc(F)ccc1-c1ncccn1)N1CCOC1Cn1ccc(-c2ccc(F)cc2)n1 (racemic) yielded IC50 of 30.2 nM

Cc1ccc(-n2nccn2)c(C(=O)N2CCOC2Cn2cc(-c3ccc(F)cc3)cn2)n1 (racemic) yielded IC50 of 96.3 nM

Cc1ccc(-n2nccn2)c(C(=O)N2CCCOC2Cn2ccc(-c3ccc(F)cc3)n2)n1 (single isomer, unassigned; (-)) yielded IC50 of 0.9 nM

Cc1ccc(-n2nccn2)c(C(=O)N2CCCOC2Cn2cc(-c3ccc(F)cn3)cn2)c1 (single isomer, unassigned; (-)) yielded IC50 of 9.6 nM

Cc1ccc(-n2nccn2)c(C(=O)N2CCCOC2Cc2noc(-c3ccc(F)cc3)n2)n1 (single isomer, unassigned; (-)) yielded IC50 of 2.1 nM

Cc1ccc(-c2ncccn2)c(C(=O)N2CCOC2Cn2ccc(-c3ccc(F)cc3)n2)c1 (racemic) yielded IC50 of 12.3 nM

`Cc1ccc(-n2nccn2)c(C(=O)N2C[C@@H](C)O[C@H]2Cn2cc(-c3ccc(F)cn3)cn2)c1` yielded IC50 of 27.5 nM

O=C(c1cc(F)ccc1-c1ncccn1)N1CCOC1Cn1ccc(-c2ccc(F)cn2)n1 (racemic) yielded IC50 of 28.9 nM

Cc1ccc(-c2ncccn2)c(C(=O)N2CCCOC2Cn2ccc(-c3ccc(F)cn3)n2)c1 (single isomer, unassigned; (-)) yielded IC50 of 2.6 nM

Cc1ccc(-n2nccn2)c(C(=O)N2CCOC2Cn2ccc(-c3ccc(F)cn3)n2)c1 (single isomer, unassigned; (-)) yielded IC50 of 4.9 nM

Cc1ccc(-n2nccn2)c(C(=O)N2CC(C)COC2Cn2cc(-c3ccc(F)cn3)cn2)c1 (single isomer, unassigned; (-)) [Example 49] yielded IC50 of 0.8 nM
